Hello, the source for this data is patent US20230066268A1, in case you need it.

Please go through the items and note down their EC50.
Tested on: HSV-1 Strain F in Vero or MRCS cells
Test: Viral qPCR assay, HSV-1
Format: cell-based
Conditions: Human alphaherpesvirus 1; starred values: viral qPCR assay of Example 26, ~72 hours, Vero or MRCS cells; read-out: HSV1 Cell (EC50), values marked *
Give bare numbers, in nM.

Please review the following examples before continuing.
Cn1nc(C(=O)NCc2ccc(Cl)cc2)c2cc(C[C@H]3CCC(=O)N3)ccc21 = 220
Cn1nc(C(=O)NCc2ccc(Cl)cc2)c2cc(C[C@H]3COC(=O)N3)ccc21 = 200

Let us examine a further case.
Query: EC50; subject: Cn1nc(C(=O)NCc2ccc(Cl)cc2)c2c3c(ccc21)C(N1CCOCC1)CC3 (stereo not drawn)
310
